- System: HepaRG
- Test protocol: LDH release cytotoxicity, % of total lysis control; higher = more cytotoxic
- Measurement setup: 100 µM; 48 h
Please go through the items and note down their LDH release cytotoxicity.
Give bare numbers, in %.

[
  {
    "Compound": "O=C(CCCCCCCCc1cccnc1)N1CCC(C=C(c2ccccc2)c2ccccc2)CC1",
    "LDH release cytotoxicity [%]": 63.3
  },
  {
    "Compound": "O=C(O)Cc1ccccc1Nc1c(Cl)cccc1Cl [Diclofenac sodium]",
    "LDH release cytotoxicity [%]": 12
  },
  {
    "Compound": "Nc1cc(Cl)cc(C(=O)O)c1Cl",
    "LDH release cytotoxicity [%]": 0.291
  },
  {
    "Compound": "CON(C)C(=O)Nc1ccc(Cl)c(Cl)c1",
    "LDH release cytotoxicity [%]": 0.919
  },
  {
    "Compound": "Clc1cc(Cl)c2c(c1)N=C1CCCCCN1C2",
    "LDH release cytotoxicity [%]": 3.36
  },
  {
    "Compound": "CC(C)(C)OOC(=O)c1ccccc1 [tert-Butyl perbenzoate]",
    "LDH release cytotoxicity [%]": 0.38
  },
  {
    "Compound": "O=C(O)c1nc(Cl)ccc1Cl",
    "LDH release cytotoxicity [%]": 0.521
  },
  {
    "Compound": "CCCN(CCC)C(=O)SCC",
    "LDH release cytotoxicity [%]": 0.622
  },
  {
    "Compound": "Cc1cnc(C2=NC(=O)C(C)(C(C)C)N2)c(C(=O)O)c1 (stereo not given)",
    "LDH release cytotoxicity [%]": 0.017
  },
  {
    "Compound": "CC1(C)C(C(=O)OC(C#N)c2cccc(Oc3ccccc3)c2)C1(C)C (stereo not given)",
    "LDH release cytotoxicity [%]": 1.44
  }
]

Could you report LDH release cytotoxicity for every entry in the following list?
1. CCc1nc(N)nc(N)c1-c1ccc(Cl)cc1
2. O=C(CCl)c1ccccc1

Key:
14.2
17.7

Below are some compounds; for each one, tell me its LDH release cytotoxicity.
1. CCc1cccc(C)c1N(C(=O)CCl)C(C)COC (stereo not given)
2. CCCOc1ccc(S(=O)(=O)N2CCN(CC)CC2)cc1-c1nc2c(CC)n(Cc3ccccn3)nc2c(=O)[nH]1
3. CC(C)(C)c1cc(O)c(C(C)(C)C)cc1O
4. O=C(O)C(F)(F)C(F)(F)C(F)(F)C(F)(F)C(F)(F)C(F)(F)C(F)(F)F
5. O=C(O)c1cccc(N(Cc2cccnc2)c2ccc(OC(F)F)c(OC(F)F)c2)c1
6. CNCc1cc(F)ccc1Oc1ccc(Cl)c(Cl)c1

Key:
1. -1.21
2. 5.44
3. -1.46
4. 1.94
5. -1.73
6. 75.6

Give one value of LDH release cytotoxicity per listed compound.
1. CC(C)(C)C(O)C(Oc1ccc(Cl)cc1)n1cncn1 (stereo not given)
2. CC(C)(C)c1ccccc1

Key:
0.57
0.779

---

- Tested on: HepaRG
- Test protocol: LDH release cytotoxicity, % of total lysis control; higher = more cytotoxic
- Measurement setup: 3.16228 µM; 48 h
Metric: LDH release cytotoxicity

Example compounds with recorded LDH release cytotoxicity:
[
  {
    "Compound": "Cc1ccc(S(=O)(=O)O)cc1C [Sodium xylenesulfonate]",
    "LDH release cytotoxicity": "-1.1%"
  },
  {
    "Compound": "CC(C)[O-].CC(C)[O-].[O-]CCN(CCO)CCO.[O-]CCN(CCO)CCO.[Ti+4] [Isopropyl triethanolamine titanate]",
    "LDH release cytotoxicity": "0.622%"
  },
  {
    "Compound": "CCC(C)C(=O)OC1CC(O)C=C2C=CC(C)C(CCC(O)CC(O)CC(=O)O)C21 (stereo not given) [Pravastatin sodium]",
    "LDH release cytotoxicity": "-0.742%"
  },
  {
    "Compound": "COCC(C)OCC(C)O (stereo not given)",
    "LDH release cytotoxicity": "-1.39%"
  }
]

Exercise: Recorded LDH release cytotoxicity of CC12CCC3c4ccc(O)cc4CCC3C1CCC2=O (stereo not given) , please.
Key: -2.37%
